src = patent US12227496B2

# Assay Target: UniProt:Q96RI1
# Test Summary: transient human FXR/Gal4-luciferase reporter assay
# Condition Summary: Gal4-hFXR LBD fusion, luciferase reporter in HEK293 cells; response relative to 8 μM GW-4064
Measured Endpoint: EC50 (nM)

Use the examples below as a reference point.
{"Molecule": "O=C(C1CCCOC1)N(CC12CCC(c3nc(C4CC4)no3)(CC1)CC2)c1cccc(-c2nc(C3CC3)no2)c1 (racemic)", "Assay Target": "UniProt:Q96RI1", "Value Units": "nM", "EC50": 226}
{"Molecule": "O=C(C1CCC(F)(F)CC1)N(CC12CCC(c3noc(C4(C(F)(F)F)CC4)n3)(CC1)CC2)c1cccc(-c2cc(C3CC3)no2)c1", "Assay Target": "UniProt:Q96RI1", "Value Units": "nM", "EC50": 78}
{"Molecule": "COCc1nc(-c2cccc(N(CC34CCC(c5nc(C6CC6)no5)(CC3)CC4)C(=O)C3CCCCC3)c2)cs1", "Assay Target": "UniProt:Q96RI1", "Value Units": "nM", "EC50": 105}

[A] CCOc1ccc(-c2cc(N(CC34CCC(c5nc(C(C)(C)C)no5)(CC3)CC4)C(=O)C3CCC(C)(O)CC3)ccc2F)cc1 (stereo not shown)
[B] CN1CCC(C(=O)N(CC23CCC(c4nc(C5CC5)no4)(CC2)CC3)c2cccc(-c3nc(C4CC4)no3)c2)CC1
[C] O=C(C1CCOCC1)N(CC12CCC(c3nc(C4CC4)no3)(CC1)CC2)c1cccc(-c2cc(C3CC3)no2)c1
[D] Cc1nc2ccc(-c3cc(N(CC45CCC(c6noc(C(C)(F)F)n6)(CC4)CC5)C(=O)C4CCC(F)(F)CC4)ccc3F)cc2s1
stdin: I would appreciate it if you could sort these 4 molecules by EC50, starting from the smallest number. Your reply should list the labels following the order given in the request.
stdout: C, D, A, B

* * *

# Assay Target: human FXR (Homo sapiens, UniProt Q96RI1)
# Test Summary: transient human FXR/Gal4-luciferase reporter assay
# Condition Summary: Gal4-hFXR LBD fusion, luciferase reporter in HEK293 cells; response relative to 8 μM GW-4064
pEC50: −log10 of the molar value.
Measured Endpoint: pEC50

{"Molecule": "O=C(C1CCC(F)(F)CC1)N(CC12CCC(c3nc(C4CC4)no3)(CC1)CC2)c1cccc(-c2cnc(C3CC3)o2)c1 [Example 26]", "Assay Target": "human FXR (Homo sapiens, UniProt Q96RI1)", "pEC50": 6.45}
{"Molecule": "O=C(C1CCCOC1)N(CC12CCC(c3nc(C4CC4)no3)(CC1)CC2)c1cccc(-c2nnc(C3CC3)o2)c1 (racemic) [Example 55]", "Assay Target": "human FXR (Homo sapiens, UniProt Q96RI1)", "pEC50": 6.03}
{"Molecule": "CN1CCC(C(=O)N(CC23CCC(c4cc(C5CC5)nn4C)(CC2)CC3)c2cccc(-c3cc(C4CC4)on3)c2)CC1 [Example 133]", "Assay Target": "human FXR (Homo sapiens, UniProt Q96RI1)", "pEC50": 5.70}
{"Molecule": "O=C(C1CCOCC1)N(CC12CCC(c3nc(C4CC4)no3)(CC1)CC2)c1cccc(-c2ccnc(OC3CC3)n2)c1 [Example 86]", "Assay Target": "human FXR (Homo sapiens, UniProt Q96RI1)", "pEC50": 5.61}
{"Molecule": "COc1cccc(-c2cccc(N(CC34CCC(c5nc(C)no5)(CC3)CC4)C(=O)C3CCCCC3)c2)c1 [Example 72]", "Assay Target": "human FXR (Homo sapiens, UniProt Q96RI1)", "pEC50": 6.51}

[1] O=C(C1CCC(F)(F)CC1)N(CC12CCC(c3noc(C(F)(F)F)n3)(CC1)CC2)c1cccc(-c2cnc(C3CC3)nc2)c1 [Example 119]
[2] Cc1cn(-c2cccc(N(CC34CCC(c5nc(C(C)(C)C)no5)(CC3)CC4)C(=O)C3CCC(F)(F)CC3)c2)cn1 [Example 142]
stdin: I'm curious whether 1 or 2 has the smaller pEC50 number. Which is it? Returns: label corresponding to the selected item.
stdout: 2
(2: 6.14, 1: 6.54)

* * *

# Assay Target: human FXR (Homo sapiens)
# Sequence (Q96RI1 262-486 limits assumed): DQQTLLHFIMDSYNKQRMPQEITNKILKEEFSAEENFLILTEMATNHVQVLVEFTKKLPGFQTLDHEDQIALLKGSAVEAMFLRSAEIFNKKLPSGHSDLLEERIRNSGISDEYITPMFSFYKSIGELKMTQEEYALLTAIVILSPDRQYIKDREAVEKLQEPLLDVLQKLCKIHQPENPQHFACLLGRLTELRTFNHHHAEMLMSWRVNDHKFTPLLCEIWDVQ
# Test Summary: transient human FXR/Gal4-luciferase reporter assay
# Condition Summary: Gal4-hFXR LBD fusion, luciferase reporter in HEK293 cells; response relative to 8 μM GW-4064
Measured Endpoint: EC50 (nM)

{"Molecule": "CCOc1ccnc(-c2cccc(N(CC34CCC(c5nc(C6CC6)no5)(CC3)CC4)C(=O)C3CCCCC3)c2)c1", "Assay Target": "human FXR (Homo sapiens)", "EC50, nM": 268}

[P] O=C(C1CCC(F)(F)CC1)N(CC12CCC(c3nc(CC4CC4)no3)(CC1)CC2)c1cccc(-c2nc(C3CC3)no2)c1
[Q] COc1cccc(-c2cccc(N(C(=O)C3CCCCC3)C(C)C34CCC(c5nc(C)no5)(CC3)CC4)c2)c1 (single isomer, unassigned) [Example 95]
stdin: I'm curious whether P or Q has the smaller EC50 number. Which is it? Returns: label corresponding to the selected item.
stdout: P

* * *

# Assay Target: human FXR (Homo sapiens)
# Test Summary: transient human FXR/Gal4-luciferase reporter assay
# Condition Summary: Gal4-hFXR LBD fusion, luciferase reporter in HEK293 cells; response relative to 8 μM GW-4064
pEC50: −log10 of the molar value.
Measured Endpoint: pEC50

[A] CCCc1ncc(-c2cccc(N(CC34CCC(c5nc(C6CC6)no5)(CC3)CC4)C(=O)C3CCCOC3)c2)o1 (racemic) [Example 30]
[B] CC(C)(C)c1noc(C23CCC(CN(C(=O)C4CCC(F)(F)CC4)c4cccc(-c5nc(C6CC6)no5)c4)(CC2)CC3)n1 [Example 103]
stdin: I'm curious whether A or B has the smaller pEC50 number. Which is it? Returns: label corresponding to the selected item.
stdout: B
(B: 6.60, A: 6.84)

[a] CC(F)(F)c1nc(C23CCC(CN(C(=O)C4CCC(F)(F)CC4)c4cccc(-c5ccc(S(C)(=O)=O)cc5)c4)(CC2)CC3)no1 [Example 130]
[b] COCc1nc(-c2cccc(N(CC34CCC(c5nc(C6CC6)no5)(CC3)CC4)C(=O)C3CCOCC3)c2)cs1 [Example 47]
stdin: Endpoint returns whichever of a and b has the numerically higher pEC50. Returns: label corresponding to the selected item.
stdout: b

[I] CC(C)(C)c1nc(C23CCC(CN(C(=O)C4CCOCC4)c4cccc(-c5nc(C6CC6)no5)c4)(CC2)CC3)no1 [Example 116]
[II] O=C(C1CCOCC1)N(CC12CCC(c3nc(CC4CC4)no3)(CC1)CC2)c1cccc(-c2nc(CC3CC3)no2)c1 [Example 41]
stdin: I'm curious whether I or II has the smaller pEC50 number. Which is it? Returns: label corresponding to the selected item.
stdout: II

[P] CCOC(=O)c1nc(-c2cccc(N(CC34CCC(c5nc(C6CC6)no5)(CC3)CC4)C(=O)C3CCCCC3)c2)cs1 [Example 31]
[Q] CC(F)(F)c1nc(C23CCC(CN(C(=O)C4CCC(F)(F)CC4)c4cccc(-c5cc(C6CC6)no5)c4)(CC2)CC3)no1 [Example 150]
stdin: I'm curious whether P or Q has the smaller pEC50 number. Which is it? Returns: label corresponding to the selected item.
stdout: P

* * *

# Assay Target: human FXR (Homo sapiens)
# Test Summary: transient human FXR/Gal4-luciferase reporter assay
# Condition Summary: Gal4-hFXR LBD fusion, luciferase reporter in HEK293 cells; response relative to 8 μM GW-4064
Measured Endpoint: EC50 (nM)

{"Molecule": "COc1cc(-c2cccc(N(CC34CCC(c5nnc(C)s5)(CC3)CC4)C(=O)C3CCCCC3)c2)ccn1 [Example 80]", "EC50 [nM]": 532}
{"Molecule": "CC(F)(F)c1nc(C23CCC(CN(C(=O)C4CCC(F)(F)CC4)c4cccc(-c5cc(C6CC6)on5)c4)(CC2)CC3)no1 [Example 154]", "EC50 [nM]": 57}
{"Molecule": "O=C(C1CCCCC1)N(CC12CCC(c3nc(C4CC4)no3)(CC1)CC2)c1cccc(-c2cnc(C3CCOCC3)o2)c1 [Example 34]", "EC50 [nM]": 212}

[I] CC(F)(F)c1nc(C23CCC(CN(C(=O)C4CCS(=O)(=O)CC4)c4cccc(-c5ccc(OC(F)F)cc5)c4)(CC2)CC3)no1 [Example 110]
[II] CCOc1ccc(-c2cc(N(CC34CCC(c5noc(C(C)(F)F)n5)(CC3)CC4)C(=O)C3CCC(O)(C(F)(F)F)CC3)ccc2F)cc1 (single isomer, unassigned) [Example 165]
[III] COc1ncc(-c2cccc(N(CC34CCC(c5nc(C)no5)(CC3)CC4)C(=O)C3CCCCC3)c2)o1 [Example 6]
[IV] CCOC(=O)c1coc(-c2cccc(N(CC34CCC(c5nc(C)no5)(CC3)CC4)C(=O)C3CCCCC3)c2)n1 [Example 19]
[V] O=C(N1CCCCC1)N(CC12CCC(c3nc(C4CC4)no3)(CC1)CC2)c1cccc(-c2nc(C3CC3)no2)c1 [Example 57]
stdin: Hello, I need these entries ordered by EC50, highest reading first. Thanks! Your reply should list the labels following the order given in the request.
stdout: IV, V, I, II, III

[P] CC(C)(C)c1nnc(C23CCC(CN(C(=O)C4CCC(F)(F)CC4)c4cccc(-c5cc(C6CC6)on5)c4)(CC2)CC3)o1 [Example 124]
[Q] COCc1coc(-c2cccc(N(CC34CCC(c5nc(C6CC6)no5)(CC3)CC4)C(=O)C3CCOCC3)c2)n1 [Example 53]
stdin: I'm curious whether P or Q has the smaller EC50 number. Which is it? Returns: label corresponding to the selected item.
stdout: Q
(Q: 189 nM, P: 467 nM)

[P] CCOc1nnc(-c2cccc(N(CC34CCC(c5nc(C6CC6)no5)(CC3)CC4)C(=O)C3CCC(F)(F)CC3)c2)o1 [Example 39]
[Q] COC(=O)C1CC1c1cccc(N(CC23CCC(c4nc(C)no4)(CC2)CC3)C(=O)C2CCCCC2)c1 (single isomer, unassigned) [Example 102]
stdin: Endpoint returns whichever of P and Q has the numerically higher EC50. Returns: label corresponding to the selected item.
stdout: Q
